# TARGET SYSTEM: MAP3K9 (human)
# ASSAY PROTOCOL: radiometric filter-binding kinase assay
# APPLIED CONDITIONS: compound 10.0 µM
Short version: residual activity at least 70% is Criterion met, less is Criterion not met.

Answer whether residual activity of O=C(N[C@@H](COc1ccc2[nH]c(=O)[nH]c2c1)c1ccccc1)c1cccn(Cc2ccc(F)c(F)c2)c1=O is greater than or equal to 70%.
Criterion not met

Confirm if residual activity reported for the compound NC(=O)c1ccc(-c2ccc(Oc3cncc4sc(-c5nn[nH]n5)cc34)cc2)cc1 is 70% or above.
Criterion not met

Evaluate COc1cc2ncn(-c3cc(OCc4ccccc4S(C)(=O)=O)c(C#N)s3)c2cc1OC : residual activity at minimum 70%?
Criterion not met

Test whether the compound Cc1ccc(Sc2cnc(Nc3cccc(Br)n3)s2)cc1C(=O)N1CCN(C(=O)CN)CC1 records residual activity of 70% or higher.
Criterion not met

Test whether the compound NC(=O)c1cc2c(-c3cccc(-c4ccccc4)c3)cnc(N)c2s1 records residual activity of 70% or higher.
Criterion not met

Assess whether reported residual activity for CCCCCc1ccc(/C=C/[C@H](O)[C@@H](CO)NC)cc1 sits at 70% or higher.
Criterion met

Reported residual activity at or above 70%? CNc1nc(-c2ccc3c(N)n[nH]c3c2)cc(N2C[C@@H](C(=O)NC3CCCCC3)CC[C@H]2C)n1
Criterion met

Item O=C(O)c1cc(N=Nc2ccc(S(=O)(=O)Nc3ccccn3)cc2)ccc1O with residual activity of 70% or above?
Criterion met

Has FC(F)(F)c1ccc(-c2ccc(Oc3cncc4sc(-c5nn[nH]n5)cc34)cc2)cc1 a recorded residual activity greater than or equal to 70%?
Criterion met

Could you please find out whether Oc1ccc(/C=C/c2cc(O)cc(O)c2)cc1 has residual activity that meets 70% or exceeds it?
Criterion not met

Is reported residual activity greater than or equal to 70% here: O=C(O)c1ccc(-c2c[nH]c3ncc(-c4ccccc4)cc23)cc1C1CCCC1
Criterion not met

Kindly determine if residual activity recorded for CCn1c(-c2nonc2N)nc2cncc(CNC3CCNCC3)c21 is above or exactly 70%.
Criterion met

# check: residual activity of N#Cc1c(C2CCNCC2)cc(-c2c(O)cccc2OCC2CC2)nc1N is greater than or equal to 70%
Criterion not met

Kindly determine if residual activity recorded for NC(=O)c1cc(-c2ccnc(NC3CCCCC3)c2)nc(N2CCNCC2)c1 is above or exactly 70%.
Criterion met

Does O=S(=O)(c1ccc(F)c2nonc12)N1CCN(c2ncc(C(F)(F)F)cc2Cl)CC1 have a reported residual activity of at least 70%?
Criterion met

Reported residual activity at or above 70%? NCC(=O)Nc1ccc(-n2nc(C(F)(F)F)cc2-c2ccc3c(ccc4ccccc43)c2)cc1
Criterion met

====

# TARGET SYSTEM: SRPK1 (human)
# ASSAY PROTOCOL: radiometric filter-binding kinase assay
# APPLIED CONDITIONS: compound 1.0 µM
Consider the reported residual activity of an entry and match it to a band in lower (below 70%), middle (70% to below 90%), upper (90% or more)

Assign a category based on measured residual activity for CN1C(=O)[C@@H](Cc2c[nH]c3ccccc23)NC1=S and give only the class name.
upper

Lab note: sort Cc1ccc(Sc2cnc(Nc3cccc(Br)n3)s2)cc1C(=O)N1CCN(C(=O)CN)CC1 into the matching residual activity band.
lower

// bin(item) where item = Nc1cccc2c1CN(C1CCC(=O)NC1=O)C2=O (configuration not stated)
upper

Entry C=C1C(=O)OC2C1CC/C(C)=C/CCC1(C)OC21 (configuration not stated) belongs to which category?
upper

Form field 'band' for Cc1ccc(-c2ccc3c(ccc4sc5c(c43)NC[C@@H](C)NC5=O)n2)cn1
lower

Entry NC(=O)c1c(NC(=O)C2CC2)sc2c1CCCC2 belongs to which category?
upper

Assign a bin to CNC(=O)C1[C@H]2O[C@@](C)([C@@H]1N)n1c3ccccc3c3c4c(c5c6ccccc6n2c5c31)C(=O)NC4 (some centres not stated)
lower

Which bin should I file O=C(NOC[C@H](O)CO)c1ccc(F)c(F)c1Nc1ccc(I)cc1Cl under?
middle

Category of O=c1c(O)c(-c2ccc(O)c(O)c2)oc2cc(O)c(O)c(O)c12 :
lower

State the class of the compound shown: Cn1c(=O)c2c(ncn2C)n(C)c1=O
upper

Just checking, what class would you give Cc1cccc(-c2nn(C(=S)Nc3ccccc3)cc2-c2ccnc3ccccc23)n1 here?
middle

Which class is correct for the following compound? COc1cc(C(=O)N2CCOCC2)c(F)cc1Nc1ncc(C(F)(F)F)c(NC2CC2)n1
middle

Which residual activity category applies to NC(=O)c1cc2c(-c3cccc(-c4ccccc4)c3)cnc(N)c2s1 here?
lower

Kindly identify the class of CCCC(CCC)C(=O)O .
upper

Dear colleague, I would appreciate it if you could identify the bin for O=C(Nc1cccnc1)c1cc(-c2ccnc(F)c2)ccc1OCc1ccccc1 and reply at your convenience.
lower
